Origin of the recorded values: the METLIN SMRT retention time set (Domingo-Almenara et al. 2019)

Give measured RP-LC retention time for each item. Keep answers brief.
measurement_protocol: gradient 5% acetonitrile 3 min, to 50% in 2 min, to 85% in 15 min, held 3 min, 100 µL/min
stated_conditions: column: Zorbax Extend-C18 2.1 x 50 mm; eluents: water / acetonitrile, 0.1% formic acid
Please respond with the number in s and leave the unit unwritten.

What does the data say about its RP-LC retention time? Entry: O=C(NCCc1ccccc1)c1nc(Cn2c(=O)oc3ccccc32)no1 888

What does the data say about its RP-LC retention time? Entry: CO[C@H]1C(=O)N(C(C)C)[C@H]1C1CCN(C(=O)CCn2cc(C)cn2)CC1 654

What does the data say about its RP-LC retention time? Entry: CCC(=O)N1CC(c2nc(-c3ccc(F)cc3)no2)C2(CCOCC2)C1 (stereo not given) 800

What does the data say about its RP-LC retention time? Entry: Cc1ccc(-c2nc3n(CC(=O)N4CCCC4)c4c(c(=O)n3n2)CCC4)cc1 752

What does the data say about its RP-LC retention time? Entry: CC(C)c1nc(-n2cccc2)sc1C(=O)Nc1ccccc1F 1270

What does the data say about its RP-LC retention time? Entry: CC(C)CN1CCn2cc(S(=O)(=O)Nc3ccc(F)c(F)c3)cc2C1=O 842

What does the data say about its RP-LC retention time? Entry: Cc1ccc(C)c(N2CCN(c3ccnc(SCC(=O)NCCCc4ccccc4)n3)CC2)c1 1060

What does the data say about its RP-LC retention time? Entry: Cc1nc(-c2ccccc2)sc1CC(=O)NCCSc1nncn1C 626

What does the data say about its RP-LC retention time? Entry: Cc1cc([N+](=O)[O-])ccc1Nc1cccc(Cl)c1C 1030

What does the data say about its RP-LC retention time? Entry: CCS(=O)(=O)c1ccc(CC(=O)Nc2ccc(F)cc2F)cc1 711

====

measurement_protocol: gradient 5% acetonitrile 3 min, to 50% in 2 min, to 85% in 15 min, held 3 min, 100 µL/min
stated_conditions: column: Zorbax Extend-C18 2.1 x 50 mm; eluents: water / acetonitrile, 0.1% formic acid
parameter_measured: RP-LC retention time (s)
Please respond with the number in s and leave the unit unwritten.

What does the data say about its RP-LC retention time? Entry: O=C(CSc1nnc(-c2ccc3c(c2)OCCO3)o1)N1CCN(c2ccccc2)CC1 850

What does the data say about its RP-LC retention time? Entry: O=C(c1ccc(Cl)cc1)N1CCC(n2c(-c3ccco3)nc3cccnc32)C1 (stereo not given) 805

What does the data say about its RP-LC retention time? Entry: CCC(C)NC(=O)c1cc2c(s1)CCN(C(=O)c1ccccc1)C2 (stereo not given) 769

What does the data say about its RP-LC retention time? Entry: Cc1ccc(NC(=O)Cn2nc3n(c2=O)CCCCC3)c(C)c1 703

What does the data say about its RP-LC retention time? Entry: CC(C)Cc1nc(C2CN(C(=O)CC3CCCC3)CC23CCCC3)no1 (stereo not given) 1210

What does the data say about its RP-LC retention time? Entry: COc1ccc(CNC2=NCCNC23CCN(S(=O)(=O)c2cc(C)ccc2C)CC3)cc1 754

What does the data say about its RP-LC retention time? Entry: CCc1cc2nn(CC#N)c(=O)n2c(C(C)C)n1 871

What does the data say about its RP-LC retention time? Entry: CCNC(=O)N1CC=C(C(=O)Nc2cccc(F)c2)CC1 673

What does the data say about its RP-LC retention time? Entry: O=C(NCc1csc(C2CCN(C(=O)c3cc(F)ccc3Cl)CC2)n1)C1CCC1 713

What does the data say about its RP-LC retention time? Entry: Cc1ccc(C2Cn3nc(-c4nc(-c5ccccc5)no4)cc3CO2)cc1 (stereo not given) 1260

====

measurement_protocol: gradient 5% acetonitrile 3 min, to 50% in 2 min, to 85% in 15 min, held 3 min, 100 µL/min
stated_conditions: column: Zorbax Extend-C18 2.1 x 50 mm; eluents: water / acetonitrile, 0.1% formic acid
parameter_measured: RP-LC retention time (s)
Please respond with the number in s and leave the unit unwritten.

What does the data say about its RP-LC retention time? Entry: Cc1cccc(NC(=O)N2CCC3(CC2)NC(=O)c2ccccc2O3)c1C 775

What does the data say about its RP-LC retention time? Entry: CCC(=O)N(C)CCc1noc(-c2ccc(C(=O)NCCN(C)C)cc2)n1 579

What does the data say about its RP-LC retention time? Entry: O=C(Nc1ccccc1)C1CCCN(C(=O)C2Sc3ccccc3NC2=O)C1 (stereo not given) 772

What does the data say about its RP-LC retention time? Entry: CCNc1cc(C)nc(N2CCN(C(=O)c3ccccc3Cl)CC2)n1 576

What does the data say about its RP-LC retention time? Entry: NS(=O)(=O)c1ccc(CCNC(=O)CCCn2cccc2)cc1 627

What does the data say about its RP-LC retention time? Entry: CCOC(=O)C1CCN(C(=O)C2CCN(c3cncnc3N(C)C)CC2)CC1 603

What does the data say about its RP-LC retention time? Entry: CC1CS(=O)(=O)N(c2ccc(S(=O)(=O)Nc3ccccc3C(F)(F)F)cc2)C1=O (stereo not given) 819

What does the data say about its RP-LC retention time? Entry: COc1ccc(-c2cn3c(CC(=O)N4CCN(c5ccccc5OC)CC4)csc3n2)cc1OC 698

What does the data say about its RP-LC retention time? Entry: CCCC(NC(=O)c1cc(F)cc(F)c1)C(=O)Nc1nc2ccccc2[nH]1 (stereo not given) 733

What does the data say about its RP-LC retention time? Entry: COc1cccc(Nc2nc(-c3ccc(I)cc3)cs2)c1 1270

What does the data say about its RP-LC retention time? Entry: COc1ccc(N2CC(C(=O)N3CC4CC3C(=O)O4)CC2=O)cc1 (stereo not given) 598

What does the data say about its RP-LC retention time? Entry: Cc1cccc(C)c1NC(=O)C1CCCN(c2nc3c(s2)c(C)nn3-c2cccc(F)c2)C1 (stereo not given) 1230

What does the data say about its RP-LC retention time? Entry: Cc1ccc(NC(=O)C2CCN(S(=O)(=O)c3ccc4c(c3)NC(=O)C(C)O4)CC2)cc1F (stereo not given) 910

What does the data say about its RP-LC retention time? Entry: Cc1ccc(N2C(=O)C3N=NN(c4ccc(C)c(Cl)c4)C3C2=O)cc1F (stereo not given) 836

What does the data say about its RP-LC retention time? Entry: O=C(Cc1cccc(C(F)(F)F)c1)N1CCc2nc[nH]c2C1 612

What does the data say about its RP-LC retention time? Entry: O=C(O)c1cccc2c1CCN2C(=O)c1ccc(F)cc1 761

What does the data say about its RP-LC retention time? Entry: COC(=O)c1ccc2c(=O)n(-c3ccc4c(c3)OCO4)c(N3CCOCC3)nc2c1 875

What does the data say about its RP-LC retention time? Entry: O=C(c1cccs1)N1CCCc2cc(NS(=O)(=O)c3cc(F)ccc3F)ccc21 832

What does the data say about its RP-LC retention time? Entry: O=C(NCCO)c1cccc(-c2cc(Nc3ccc(OC(F)(F)F)cc3)ncn2)c1 793

What does the data say about its RP-LC retention time? Entry: O=C(NCCc1ccccc1)N1CCC(c2noc(-c3ccccc3)n2)C1 (stereo not given) 914

====

measurement_protocol: gradient 5% acetonitrile 3 min, to 50% in 2 min, to 85% in 15 min, held 3 min, 100 µL/min
stated_conditions: column: Zorbax Extend-C18 2.1 x 50 mm; eluents: water / acetonitrile, 0.1% formic acid
parameter_measured: RP-LC retention time (s)
Please respond with the number in s and leave the unit unwritten.

What does the data say about its RP-LC retention time? Entry: c1cncc(-c2nc(-c3ccc(OC4CN(Cc5ccsc5)C4)cc3)no2)c1 693

What does the data say about its RP-LC retention time? Entry: Cc1cc(C)c(S(=O)(=O)N2CCCC2c2nc(-c3cccc(Cl)c3)no2)c(C)c1 (centres undefined) 1350

What does the data say about its RP-LC retention time? Entry: O=C(NCc1ccccc1F)C1CCN(C(=O)c2ncn3c2COC(c2ccccc2)C3)CC1 (centres undefined) 747

What does the data say about its RP-LC retention time? Entry: Cc1ccc(NC(=O)C2CCCN(C(=O)C3Sc4ccccc4NC3=O)C2)cc1F (centres undefined) 844

What does the data say about its RP-LC retention time? Entry: CC(C)(C)c1csc(-c2csc(S(=O)(=O)Nc3ccc(Cl)cc3F)c2)n1 1300

What does the data say about its RP-LC retention time? Entry: COc1cc(C(=O)NCCOc2ccc(F)cc2)c([N+](=O)[O-])cc1OC 777

What does the data say about its RP-LC retention time? Entry: Cc1cc(C(=O)N2CCC(c3noc(-c4ccncc4)n3)C2)nn1C (centres undefined) 661

What does the data say about its RP-LC retention time? Entry: CCC(=O)NCc1nc2c(n1CC)CN(C(=O)c1cc(C)cc(C)c1)CC2 620

What does the data say about its RP-LC retention time? Entry: CCn1c(=O)n(Cc2ccccn2)c(=O)c2cnc(-c3ccc(OC)cc3)nc21 880

What does the data say about its RP-LC retention time? Entry: CC(C)CCNC(=O)N1CCN(Cc2nc3ccc(Cl)cc3o2)CC1 746

What does the data say about its RP-LC retention time? Entry: Cc1nc2c(C(=O)NCCN(C)C)cnn2c(C)c1Cc1ccccc1Cl 674

What does the data say about its RP-LC retention time? Entry: CCN(CC)C(=O)c1cnc2snc(C)c2c1N1CCC(C(=O)Nc2ccc(OC)c(Cl)c2)CC1 900

What does the data say about its RP-LC retention time? Entry: O=C(NC1CC1)c1n[nH]c2c1CCCC2 636

What does the data say about its RP-LC retention time? Entry: O=C(NCc1ccc2c(c1)OCO2)C1CCCN(c2nccn3nc(-c4ccccc4Cl)cc23)C1 (centres undefined) 895

What does the data say about its RP-LC retention time? Entry: Cc1ccc(CNC(=O)C2CCN(C(=O)c3nn(C)c4c3CN(C(=O)C(C)C)CC4)CC2)cc1 702

What does the data say about its RP-LC retention time? Entry: COc1ccccc1CNS(=O)(=O)c1cc(-c2[nH]ncc2C(=O)N2CCCC2)oc1C 694

What does the data say about its RP-LC retention time? Entry: CCOC(=O)Cn1c(CNC(=O)c2ccco2)nc2ccccc21 618

What does the data say about its RP-LC retention time? Entry: Cc1cccc(-n2c(=O)c3c(cc(C)n3C)n(CC(=O)Nc3cccc(Br)c3)c2=O)c1 962

What does the data say about its RP-LC retention time? Entry: Cc1cccc(NC(=O)N2CCC3(CC2)NC(=O)c2ccc(F)cc2N3C)c1 723
